Would you kindly list pEC50 for each of these substances?
biological target: hGcgR (Homo sapiens, UniProt P47871); assay: Functional cAMP activation in the presence of 0.1% casein (no HSA); type: cell-based; settings: in the presence of 0.1% casein (no HSA); geometric mean; read-out: Relative cAMP EC50, hGcgR;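 also: intracellular cAMP rise after 30 min at 37 °C, read by HTRF against a cAMP standard curve, scaled from buffer only (0%) to maximal control ligand response (100%)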
Sequence (P47871 26-477): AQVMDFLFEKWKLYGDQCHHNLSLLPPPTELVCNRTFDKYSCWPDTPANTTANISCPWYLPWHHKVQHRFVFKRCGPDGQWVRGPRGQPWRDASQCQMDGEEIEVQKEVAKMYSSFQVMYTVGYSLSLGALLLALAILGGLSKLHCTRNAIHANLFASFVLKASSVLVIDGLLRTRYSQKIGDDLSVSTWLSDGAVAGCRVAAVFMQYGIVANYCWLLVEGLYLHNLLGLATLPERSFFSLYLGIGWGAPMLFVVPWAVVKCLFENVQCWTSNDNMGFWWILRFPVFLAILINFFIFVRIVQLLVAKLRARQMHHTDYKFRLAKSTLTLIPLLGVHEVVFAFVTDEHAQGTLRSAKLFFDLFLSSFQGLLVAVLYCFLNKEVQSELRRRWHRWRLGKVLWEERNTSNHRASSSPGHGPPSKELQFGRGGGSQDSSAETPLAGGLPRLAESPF
Starred links: 1 amine or outer side, 2 acyl side, 3 side chain; linkers in the order of their positions; H or OH if unused. Non-standard residues stand in square brackets, D forms with d. Groups on a side chain read outwards from the residue. No end group written: not given here. *: point of attachment. C20 diacid = O=C(O)CCCCCCCCCCCCCCCCCCC(=O)*; C18 diacid = O=C(O)CCCCCCCCCCCCCCCCC(=O)*; αMePhe(2-F) = C[C@](N)(Cc1ccccc1F)C(=O)O; γGlu = O=C(O)[C@H](CCC(=O)[*:2])N[*:1]; αMe4Pal = C[C@](N)(Cc1ccncc1)C(=O)O; αMeY = C[C@](N)(Cc1ccc(O)cc1)C(=O)O; αMeF = C[C@](N)(Cc1ccccc1)C(=O)O; 4Pal = N[C@@H](Cc1ccncc1)C(=O)O; αMeL = CC(C)C[C@](C)(N)C(=O)O; αMeS = C[C@](N)(CO)C(=O)O; Orn = NCCC[C@H](N)C(=O)O; AEEA = NCCOCCOCC(=O)O; Aib = CC(C)(N)C(=O)O
Give bare numbers, as −log10 of the molar value.

Some substances with known pEC50 results, for comparison:
- substance: "H-Y[Aib]QGT[αMePhe(2-F)]TSD[4Pal][αMeS]I[αMeL]LD[Orn]K([AEEA-γGlu-C18 diacid])AQ[αMe4Pal]EFI[dE][αMeY]LVEGGPSSGEPPPEGE-NH2 [Example 1159]"
  target system: "hGcgR (Homo sapiens, UniProt P47871)"
  pEC50: 8.73
- substance: "H-Y[Aib]QGTFTSD[4Pal]S[Orn][αMeL]LDKK([γGlu-γGlu-C18 diacid])AQ[Aib]AFIE[αMeY]LLEGGPSSGAPPPSGS-NH2 [Example 942]"
  target system: "hGcgR (Homo sapiens, UniProt P47871)"
  pEC50: 8.20

// batch mode: one pEC50 value per listed entry
1. Y[Aib]QGT[αMeF]TSD[4Pal][αMeS]I[αMeL]LD[Orn]K([γGlu-γGlu-C18 diacid])AQ[αMe4Pal]EFI[dE][αMeY]LIEGGPSSGAPPPSGGGE-NH2 [Example 1174]
2. H-Y[Aib]QGTFTSDFSK[αMeL]LDKK([AEEA-γGlu-C20 diacid])AQ[Aib]AFIEWLLAGGPSSGEPPPSEG-NH2 [Example 20]
3. H-Y[Aib]QGTFTSD[4Pal]S[Orn][αMeL]LD[Orn]K([Glu-γGlu-C18 diacid])AQ[αMe4Pal]AFIEYLIAGGPSSGAPPPSGSEE-NH2 [Example 1061]
4. Y[Aib]QGTFTSD[4Pal]SK[αMeL]LDKK([AEEA-γGlu-C18 diacid])AQ[Aib]AFIEYLIA[Aib]GESSGEPPPSGE-NH2 [Example 286]

Ans:
8.59
7.81
7.76
8.66

----------
assay: In vivo ileum (distal loop) absorption assay; conditions: Sprague Dawley, rat, 300 μM peptide with 100 mM C10, rats
Starred links: 1 amine or outer side, 2 acyl side, 3 side chain; linkers in the order of their positions; H or OH if unused. Non-standard residues stand in square brackets, D forms with d. Groups on a side chain read outwards from the residue. No end group written: not given here. *: point of attachment. C18 diacid = O=C(O)CCCCCCCCCCCCCCCCC(=O)*; γGlu = O=C(O)[C@H](CCC(=O)[*:2])N[*:1]; αMe4Pal = C[C@](N)(Cc1ccncc1)C(=O)O; αMeL = CC(C)C[C@](C)(N)C(=O)O; AEEA = NCCOCCOCC(=O)O; Aib = CC(C)(N)C(=O)O
reported endpoint: AUC (µM·h)
Give bare numbers, in µM·h.

Q: Return AUC (reported value) for this substance: Y[Aib]QGTFTSDFSQ[αMeL]LDKK([AEEA-γGlu-C18 diacid])AQ[αMe4Pal]AFIEYLIE[Aib]GESSGAPPPSGS-NH2 [Example 232]
Ans: 0.202

Just for reference, patent US20240270821A1 is where these values come from.
